test: Total clearance was determined in rat at 25 mg/kg intraperitoneal dosage; type: ADME, organism-based; design: dose 25 mg/kg, route intraperitoneal; settings: in vivo, ip, read-out: Clearance (converted)
metric: CL/F (mL/min/kg)
Express the result in mL/min/kg but write the number alone.

If you can, please state the reported CL/F value of CN1CCN(c2c(F)cc3c(=O)c(C(=O)O)cn4c3c2SCC4)CC1 .
4.18

* * *

assay: Half life period was determined for the compound at 100 mg/kg concentration, oral route in human; format: ADME, organism-based; set-up: dose 100 mg/kg, route oral; conditions: in vivo
metric: half-life (h)
Express the result in h but write the number alone.

If you can, please state the reported half-life value of CN1CCN(c2c(F)cc3c(=O)c(C(=O)O)cn4c3c2SCC4)CC1 [RUFLOXACIN] .
30

* * *

assay: Peak plasma concentration at a dose of 200 mg/kg, oral route in human; type: ADME, organism-based; design: dose 200 mg/kg, route oral; settings: read-out: Activity
metric: Cmax (ng/mL)
Express the result in ng/mL but write the number alone.

If you can, please state the reported Cmax value of CN1CCN(c2c(F)cc3c(=O)c(C(=O)O)cn4c3c2SCC4)CC1 [RUFLOXACIN] .
1920

* * *

system: Morganella morganii; experiment: In vitro antibacterial activity against clinical isolates of Proteus morganii 27 (gram negative) by agar dilution assay.; type: functional
Assign MIC to each entry below.
Express the result in µg/mL but write the number alone.

If you can, please state the reported MIC value of O=C(O)c1cn2c3c(c(Cl)c(Cl)cc3c1=O)SCC2 .
1.56

Another compound to look at: CC1COc2c(N3CCN(C)CC3)c(F)cc3c(=O)c(C(=O)O)cn1c23 (stereo not given)
0.78

Another compound to look at: O=C(O)c1cn2c3c(c(N4CCSCC4)c(F)cc3c1=O)SCC2
6.25

Another compound to look at: CN1CCN(c2cc3c4c(c2)c(=O)c(C(=O)O)cn4CCS3)CC1
100

Another compound to look at: CN1CCN(c2c(F)cc3c(=O)c(C(=O)O)cn4c3c2SCC4)CC1
1.56

* * *

experiment: Half life period was determined for the compound at 20 mg/kg concentration, oral route in monkey (Macaca fascicularis); type: ADME, organism-based; parameters: dose 20 mg/kg, route oral; settings: cynomolgus monkey, in vivo
metric: half-life

If you can, please state the reported half-life value of CN1CCN(c2c(F)cc3c(=O)c(C(=O)O)cn4c3c2SCC4)CC1 .
50 h

* * *

tested on: Pseudomonas aeruginosa; assay: In vitro antibacterial activity against clinical isolates of Pseudomonas aeruginosa 2437 (gram negative) by agar dilution assay.; assay type: functional
Assign MIC to each entry below.
Express the result in µg/mL but write the number alone.

If you can, please state the reported MIC value of O=C(O)c1cn2c3c(cc(N4CCNCC4)cc3c1=O)SCC2 .
50

Another molecule to look at: O=C(O)c1cn2c3c(cc(N4CCN(C(=O)C(F)(F)F)CC4)cc3c1=O)SCC2
100

Another molecule to look at: O=C(O)c1cn2c3c(cccc3c1=O)S(=O)(=O)CC2
100

Another molecule to look at: CC1COc2c(N3CCN(C)CC3)c(F)cc3c(=O)c(C(=O)O)cn1c23 (stereo not given) [OFLOXACIN]
1.56

Another molecule to look at: O=C(O)c1cn2c3c(ccc(C(F)(F)F)c3c1=O)SCC2
100

* * *

assay: Urinary clearance was determined in rat at 25 mg/kg os dosage; assay type: ADME, organism-based; design: dose 25 mg/kg; conditions: urine, po, read-out: CL_renal (converted)
metric: CL renal (mL/min/kg)
Express the result in mL/min/kg but write the number alone.

If you can, please state the reported CL renal value of CN1CCN(c2c(F)cc3c(=O)c(C(=O)O)cn4c3c2SCC4)CC1 .
1.21

* * *

system: Pseudomonas aeruginosa; assay: In vitro antibacterial activity against clinical isolates of Pseudomonas aeruginosa 2437 (gram negative) by agar dilution assay.; assay type: functional
metric: log10 of MIC (log10 of the value in µg/mL)
# values: log10(MIC), units µg/mL

If you can, please state the reported log10 of MIC value of O=C(O)c1cn2c3c(cc(F)cc3c1=O)SCC2 .
1.70

Another compound to look at: O=C(O)c1cn2c3c(c(N4CCCC4)c(F)cc3c1=O)SCC2
0.49

Another compound to look at: CCn1cc(C(=O)O)c(=O)c2cc(F)c(N3CCNCC3)cc21
0.19

Another compound to look at: O=C(O)c1cn2c3c(c(N4CCNCC4)c(F)cc3c1=O)SCC2
1.10

Another compound to look at: O=C(O)c1cn2c3c(cc(N4CCOCC4)cc3c1=O)SCC2
0.80

* * *

assay: Half life period was determined for the compound at 200 mg/kg concentration, oral route in human; assay type: ADME, organism-based; set-up: dose 200 mg/kg, route oral; details: in vivo
metric: half-life (h)
Express the result in h but write the number alone.

If you can, please state the reported half-life value of CN1CCN(c2c(F)cc3c(=O)c(C(=O)O)cn4c3c2SCC4)CC1 .
35

* * *

assay: Urinary excretion for the compound was evaluated as percent dose excreted at 25 mg/kg os dosage; type: ADME, organism-based; design: dose 25 mg/kg; conditions: urine, po
metric: dose excreted (%)
Express the result in % but write the number alone.

If you can, please state the reported dose excreted value of CN1CCN(c2c(F)cc3c(=O)c(C(=O)O)cn4c3c2SCC4)CC1 .
24.5

* * *

assay: in vivo; conditions: liver, po, 50 mg/kg
Description: Tissue levels for the compound was determined at 15 hr after peroral dose of 50 mg/kg in liver
metric: concentration at 15 h (ng/mL)
Express the result in ng/mL but write the number alone.

If you can, please state the reported concentration at 15 h value of CN1CCN(c2c(F)cc3c(=O)c(C(=O)O)cn4c3c2SCC4)CC1 [RUFLOXACIN] .
11000

* * *

experiment: Ratio of tissue (liver) levels to plasma levels after 1 hr of treatment; format: ADME
metric: Kp at 1 h
Answer with a number only.

If you can, please state the reported Kp at 1 h value of CN1CCN(c2c(F)cc3c(=O)c(C(=O)O)cn4c3c2SCC4)CC1 [RUFLOXACIN] .
8

* * *

experiment: in vivo; conditions: ip, 25 mg/kg
Description: Half life period was determined for the compound at 25 mg/kg concentration, intraperitoneal route
metric: half-life (h)
Express the result in h but write the number alone.

If you can, please state the reported half-life value of CN1CCN(c2c(F)cc3c(=O)c(C(=O)O)cn4c3c2SCC4)CC1 [RUFLOXACIN] .
9.9

* * *

experiment: Peak plasma concentration at a dose of 400 mg/kg, oral route in human; type: ADME, organism-based; set-up: dose 400 mg/kg, route oral; details: read-out: Activity
metric: Cmax (ng/mL)
Express the result in ng/mL but write the number alone.

If you can, please state the reported Cmax value of CN1CCN(c2c(F)cc3c(=O)c(C(=O)O)cn4c3c2SCC4)CC1 .
2730

* * *

assay: in vivo; conditions: heart, po, 50 mg/kg
Description: Tissue levels determined 15 hr after peroral dose of 50 mg/kg in heart
metric: concentration at 15 h (ng/mL)
Express the result in ng/mL but write the number alone.

If you can, please state the reported concentration at 15 h value of CN1CCN(c2c(F)cc3c(=O)c(C(=O)O)cn4c3c2SCC4)CC1 [RUFLOXACIN] .
5000

* * *

assay: Tissue levels determined 1 hr after peroral dose of 50 mg/kg in liver; settings: po
metric: concentration at 1 h

If you can, please state the reported concentration at 1 h value of CN1CCN(c2c(F)cc3c(=O)c(C(=O)O)cn4c3c2SCC4)CC1 .
80 µg/mL

* * *

test: Half life period was determined for the compound at 10 mg/kg concentration, intraperitoneal route; conditions: in vivo, ip
metric: half-life (h)
Express the result in h but write the number alone.

If you can, please state the reported half-life value of CN1CCN(c2c(F)cc3c(=O)c(C(=O)O)cn4c3c2SCC4)CC1 [RUFLOXACIN] .
9.9

* * *

experiment: in vivo; details: kidney, po, 50 mg/kg
Description: Tissue levels determined 15 hr after peroral dose of 50 mg/kg in kidney
metric: concentration at 15 h (ng/mL)
Express the result in ng/mL but write the number alone.

If you can, please state the reported concentration at 15 h value of CN1CCN(c2c(F)cc3c(=O)c(C(=O)O)cn4c3c2SCC4)CC1 [RUFLOXACIN] .
8000

* * *

test: Plasma levels determined 1 hr after peroral dose of 50 mg/kg; settings: po
metric: concentration at 1 h (ng/mL)
Express the result in ng/mL but write the number alone.

If you can, please state the reported concentration at 1 h value of CN1CCN(c2c(F)cc3c(=O)c(C(=O)O)cn4c3c2SCC4)CC1 [RUFLOXACIN] .
10000

* * *

assay: in vivo; conditions: plasma, po, 50 mg/kg
Description: Plasma levels of compound determined 15 hr after peroral dose of 50 mg/kg
metric: concentration at 15 h
Don't forget the unit after the number, please.

If you can, please state the reported concentration at 15 h value of CN1CCN(c2c(F)cc3c(=O)c(C(=O)O)cn4c3c2SCC4)CC1 [RUFLOXACIN] .
3000 ng/mL
